Origin of values: paper PMC11332147

# Target of assay: T1, UmuDAb (Acinetobacter baumannii ATCC 17978 JH, UniProt A0A0D5YJU0 1-203)
# T1 sequence: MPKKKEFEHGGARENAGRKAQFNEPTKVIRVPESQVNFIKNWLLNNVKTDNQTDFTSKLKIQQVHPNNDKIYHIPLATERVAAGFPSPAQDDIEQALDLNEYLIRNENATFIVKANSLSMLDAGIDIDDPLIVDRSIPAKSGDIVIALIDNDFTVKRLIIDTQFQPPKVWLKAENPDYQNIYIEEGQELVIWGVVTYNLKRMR
# Method description: EMSA; Hill 4.9; EMSA: LI-COR Odyssey binding buffer (10x = 100 mM Tris, 500 mM KCl, 10 mM DTT, pH 7.5), 25 mM DTT, 1 ug/uL poly(dI-dC), 200 fmol probe per 20 uL, 20 min at room temperature; 5% TBE gel run at 4 C
# Cond: protein: recombinant; chain copies: 2; label: 5' IRDye700 on both strands; blunt
Measured attribute: Kd (nM)
Write it as a number; the unit nM goes unstated.

Query: Supply reported Kd belonging to this binder: WT 37 bp UmuDAb operator probe (dsDNA) DNA 1: TCGTCAACTTGAAAATGTAACTTTTTCAAGTTACATT DNA 2: AATGTAACTTGAAAAAGTTACATTTTCAAGTTGACGA
Result: 38.9
